Below, each entry is listed alongside its reported protein stability index.
B1: CDS2 (parent)
chain: LIVVTQSHLVIHNLFEGMIWFIVP

Variants of: B1
Test: protein stability index of a GFP-peptide fusion (GPS, HEK-293T) (PSI 1-6); higher = more stable;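 further: lentivirally expressed fusions sorted by FACS into six bins by GFP to DsRed ratio, PSI derived from sequencing read proportions per bin multiplied by bin number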
Conditions: c terminus: a fixed tail appended
Reported property: protein stability index

>>> reading("YIVVTQSHLVIHNLFEGMIWFIVP [L1Y]")
3.07
>>> reading("LIVVTQSHLVIHNLFEGMIWFITP [V23T]")
3.31
>>> reading("LIVVTQSHLVIHNLFAGMIWFIVP [E16A]")
4.16
>>> reading("LIVVTQRHLVIHNLFEGMIWFIVP [S7R]")
4.35
>>> reading("LIVVTQSHLVIHFLFEGMIWFIVP [N13F]")
2.94
>>> reading("LIVVTCSHLVIHNLFEGMIWFIVP [Q6C]")
2.42
>>> reading("LIVVTQSHLVITNLFEGMIWFIVP [H12T]")
4.2
>>> reading("LIVVTQSHLVIHNLFEGPIWFIVP [M18P]")
2.89
>>> reading("LIVVTNSHLVIHNLFEGMIWFIVP [Q6N]")
3.99
>>> reading("LIVVTQSHLVIINLFEGMIWFIVP [H12I]")
1.85
>>> reading("LIVVTQSHWVIHNLFEGMIWFIVP [L9W]")
2.91
>>> reading("LIVVTQSHLVIHNLFEGWIWFIVP [M18W]")
2.66
>>> reading("LKVVTQSHLVIHNLFEGMIWFIVP [I2K]")
4.33
>>> reading("LIVVTQSHLVIHNLFEGMIWFIEP [V23E]")
4.22
>>> reading("LIVVTQSHLFIHNLFEGMIWFIVP [V10F]")
3.01
>>> reading("LIVVTQSHLVIHNLFEGMIWNIVP [F21N]")
3.24
>>> reading("LIVVTQSHLVIHNLFEGMIWFIVR [P24R]")
3.1
>>> reading("LIVVMQSHLVIHNLFEGMIWFIVP [T5M]")
3.04
>>> reading("LIVVLQSHLVIHNLFEGMIWFIVP [T5L]")
2.71
>>> reading("LIVVTQSHLVIHNLFESMIWFIVP [G17S]")
3.9
>>> reading("LIVVTQSELVIHNLFEGMIWFIVP [H8E]")
2.35
>>> reading("LIRVTQSHLVIHNLFEGMIWFIVP [V3R]")
2.14

Numbers sourced from the supplement of paper PMC10567573.
